FYI, the data here is from patent US20150246938A1.

target: recombinant human ACC2 (Homo sapiens, UniProt O00763); construct: a cDNA encoding human ACC2 (27-2458) was cloned from human kidney cDNA library (Clontech); His-tag (N); made in house; host or cells: Sf-9 insect cells (Bac-to-Bac baculovirus); assay: Measurement of inhibitory activity on human ACC2 (MALDI-TOF MS, acetyl CoA to malonyl CoA conversion); format: biochemical; settings: inhibition activity on human ACC2, untitled table (Table 81); read-out: IC50
Sequence (O00763 27-2458): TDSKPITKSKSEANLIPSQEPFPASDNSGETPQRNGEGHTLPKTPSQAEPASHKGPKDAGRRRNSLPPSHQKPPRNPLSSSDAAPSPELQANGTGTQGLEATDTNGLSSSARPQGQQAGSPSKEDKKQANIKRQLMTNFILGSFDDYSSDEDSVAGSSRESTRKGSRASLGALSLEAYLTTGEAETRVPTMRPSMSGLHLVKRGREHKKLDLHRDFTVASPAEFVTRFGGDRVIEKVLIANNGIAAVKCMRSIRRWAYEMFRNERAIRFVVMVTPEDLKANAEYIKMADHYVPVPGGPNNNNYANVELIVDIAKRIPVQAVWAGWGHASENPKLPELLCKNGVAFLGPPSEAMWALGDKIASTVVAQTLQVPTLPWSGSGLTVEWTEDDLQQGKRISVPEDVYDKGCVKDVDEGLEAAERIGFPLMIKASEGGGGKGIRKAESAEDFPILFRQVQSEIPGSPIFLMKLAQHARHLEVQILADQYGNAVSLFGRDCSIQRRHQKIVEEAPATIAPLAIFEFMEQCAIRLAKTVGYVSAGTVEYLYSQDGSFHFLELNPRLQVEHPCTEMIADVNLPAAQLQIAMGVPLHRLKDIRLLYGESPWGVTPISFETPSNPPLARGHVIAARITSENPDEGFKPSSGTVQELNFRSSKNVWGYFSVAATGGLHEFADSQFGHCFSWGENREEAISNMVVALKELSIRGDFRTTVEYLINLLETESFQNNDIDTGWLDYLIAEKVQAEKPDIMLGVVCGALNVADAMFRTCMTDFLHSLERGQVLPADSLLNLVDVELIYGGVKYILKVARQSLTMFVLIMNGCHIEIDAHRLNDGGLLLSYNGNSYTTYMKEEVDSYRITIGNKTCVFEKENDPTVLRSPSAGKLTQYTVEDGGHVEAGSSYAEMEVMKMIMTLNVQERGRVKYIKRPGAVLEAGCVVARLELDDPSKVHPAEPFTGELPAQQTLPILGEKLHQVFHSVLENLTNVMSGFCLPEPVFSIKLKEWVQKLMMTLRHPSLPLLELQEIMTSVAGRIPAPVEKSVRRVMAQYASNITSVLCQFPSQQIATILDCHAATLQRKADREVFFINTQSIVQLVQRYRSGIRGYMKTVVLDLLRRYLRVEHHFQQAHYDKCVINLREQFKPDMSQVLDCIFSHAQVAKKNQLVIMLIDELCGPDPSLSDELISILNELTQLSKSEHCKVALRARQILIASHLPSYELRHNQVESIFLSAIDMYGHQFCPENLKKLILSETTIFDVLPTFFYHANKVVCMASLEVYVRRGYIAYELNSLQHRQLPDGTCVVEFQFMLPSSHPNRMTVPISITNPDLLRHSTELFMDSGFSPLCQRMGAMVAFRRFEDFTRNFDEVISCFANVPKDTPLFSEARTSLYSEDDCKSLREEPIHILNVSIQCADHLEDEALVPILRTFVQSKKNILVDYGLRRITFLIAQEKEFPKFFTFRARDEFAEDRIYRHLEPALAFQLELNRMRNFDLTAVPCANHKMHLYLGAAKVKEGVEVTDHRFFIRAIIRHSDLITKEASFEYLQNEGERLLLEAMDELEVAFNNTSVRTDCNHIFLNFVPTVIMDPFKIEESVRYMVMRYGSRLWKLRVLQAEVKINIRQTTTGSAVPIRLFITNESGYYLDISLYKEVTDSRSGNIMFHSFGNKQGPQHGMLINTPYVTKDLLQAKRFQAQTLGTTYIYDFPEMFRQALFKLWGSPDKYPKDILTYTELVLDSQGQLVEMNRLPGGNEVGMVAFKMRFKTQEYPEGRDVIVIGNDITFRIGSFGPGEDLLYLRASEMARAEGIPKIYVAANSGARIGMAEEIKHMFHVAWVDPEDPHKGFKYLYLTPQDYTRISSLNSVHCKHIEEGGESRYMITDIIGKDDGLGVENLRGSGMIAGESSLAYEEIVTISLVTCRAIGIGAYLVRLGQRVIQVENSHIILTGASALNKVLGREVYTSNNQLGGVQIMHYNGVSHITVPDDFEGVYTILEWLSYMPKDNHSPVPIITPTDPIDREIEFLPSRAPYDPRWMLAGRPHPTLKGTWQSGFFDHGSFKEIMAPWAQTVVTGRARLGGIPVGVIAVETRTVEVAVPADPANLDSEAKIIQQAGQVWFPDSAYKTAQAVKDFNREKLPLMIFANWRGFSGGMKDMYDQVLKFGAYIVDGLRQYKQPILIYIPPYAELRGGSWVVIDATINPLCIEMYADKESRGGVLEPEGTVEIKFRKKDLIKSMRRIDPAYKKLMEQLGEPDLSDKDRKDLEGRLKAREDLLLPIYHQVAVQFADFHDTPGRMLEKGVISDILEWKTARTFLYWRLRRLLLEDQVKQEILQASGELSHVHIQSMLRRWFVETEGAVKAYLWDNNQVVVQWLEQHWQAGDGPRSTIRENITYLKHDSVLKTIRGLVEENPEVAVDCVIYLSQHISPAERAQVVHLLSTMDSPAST
Below is a list of entries, each paired with its recorded pIC50 value.
Scale: pIC50 equals -log10([C]), with [C] in mol/L.

CCCc1ncc(Oc2ccc(/C=C/[C@H](C)NC(C)=O)cn2)cc1Cl [Compound I-294]	6.82
CC(=O)N[C@@H](C)/C=C/c1ccc(Oc2ccc(N3CCCC3=O)cc2Cl)nc1 [Compound I-272]	6.35
CC(=O)N[C@@H](C)/C=C/c1ccc(Oc2cc(OC(C)C)ccc2F)nc1 [Compound I-279]	7.23
CC(=O)N[C@@H](C)/C=C/c1ccc(Oc2ccc(NC(=O)CC3CC3)cc2Cl)nc1 [Compound I-251]	7.02
CC(=O)NC(C)/C(C)=C/c1ccc(Oc2ccc(O)cc2Cl)nc1 (centres unmarked) [Compound I-283]	5.49
COc1cc(F)cc(Oc2ccc(/C=C/[C@H](C)NC(C)=O)cn2)c1 [Compound I-257]	6.80
CC(=O)NC(C)/C(C)=C/c1ccc(Oc2ccc(OCC3CC3)cc2Cl)nc1 (centres unmarked) [Compound I-282]	7.89
CC(=O)N[C@@H](C)/C=C/c1ccc(Oc2cncc(OCC3CC3)c2)nc1 [Compound I-293]	5.89
CC(=O)N[C@@H](C)/C=C/c1ccc(Oc2ccc(Br)c(Cl)c2)nc1 [Compound I-289]	7.55
CCNC(=O)c1cc(C(=O)N[C@@H](C)/C=C/c2cnn(Cc3ccc(F)c(C(F)(F)F)c3)c2)ccn1 [Compound I-309]	5.55

### Prompt Lab request: please report pIC50 under test system recombinant human ACC2 (Homo sapiens, UniProt O00763) for CCOc1ccc(Oc2cnc(/C=C/[C@H](C)NC(C)=O)cn2)c(Cl)c1 [Compound I-286]
### Response 7.32

====

biological target: recombinant human ACC2 (Homo sapiens); construct: a cDNA encoding human ACC2 (27-2458) was cloned from human kidney cDNA library (Clontech); His-tag (N); made in house; host or cells: Sf-9 insect cells (Bac-to-Bac baculovirus); test: Measurement of inhibitory activity on human ACC2 (MALDI-TOF MS, acetyl CoA to malonyl CoA conversion); type: biochemical; conditions: inhibition activity on human ACC2, Table 84; read-out: IC50
Consider the following partition of reported IC50 into named classes: bin 1 (below 40 nM), bin 2 (40 nM to below 80 nM), bin 3 (80 nM or more)

For orientation, consider the following solved cases.
CC(=O)N[C@@H](C)/C=C/c1ccc(Oc2ccc(-c3ncc(F)cn3)cc2Cl)nc1	bin 1
CCCc1cccc(Oc2ccc(/C=C/[C@H](C)NC(C)=O)cn2)c1Cl	bin 1
C/C=C(\CC)c1ccc(Oc2ccc(/C=C/[C@H](C)NC(C)=O)cn2)c(Cl)c1	bin 3
CC(=O)N[C@@H](C)/C=C/c1ccc(Oc2ccc(Oc3ccccn3)cc2Cl)nc1	bin 2
CCCc1cc(Cl)c(Oc2ccc(/C=C/[C@H](C)NC(C)=O)cn2)cc1Cl	bin 1

### Prompt // return the class label for CC(=O)N[C@@H](C)/C=C/c1ccc(Oc2cnc(N3CCC(F)CC3)nc2)nc1
### Response bin 2

### Prompt // return the class label for CC(=O)N[C@@H](C)/C=C/c1ccc(Oc2ccc(Oc3ccccc3)cc2Cl)nc1
### Response bin 1

### Prompt // return the class label for CCC(=O)c1ccc(Oc2ncc(/C=C/[C@H](C)NC(C)=O)s2)c(Cl)c1
### Response bin 3
